system: M14 melanoma; experiment: NCI-60 one-dose screen, 48 h (100 = growth as untreated, 0 = no growth, -100 = all killed); conditions: 10 µM unless noted
About 83,000 compounds went through this panel and 20% of them were active in at least one assay; those are over-represented in the sample as a whole.

{"MOL SMILES": "COc1cc2cc(c1Cl)N(C)C(=O)C[C@H](OC(=O)[C@H](C)N(C)C(=O)CCS)C[C@]1(C)O[C@H]1[C@H](C)[C@@H]1C[C@@](O)(NC(=O)O1)[C@H](OC)/C=C/C=C(\\C)C2", "growth, %": 1.73}
{"MOL SMILES": "C=C(C)[C@@H]1CC[C@]2(C(=O)n3ccnc3)CC[C@]3(C)[C@H](CC[C@@H]4[C@@]5(C)CCCNC(C)(C)[C@@H]5CC[C@]43C)[C@@H]12", "growth, %": -78.6}
{"MOL SMILES": "CCCCn1c(=O)c(/C=C/C(=O)/C=C/c2ccc(OC)cc2)cc2cc(Cl)ccc21", "growth, %": 95}

Data provenance: PubChem BioAssay (NCI)
